Value source: patent US20240366589A1

Record form. Attribute: Urine Na % of control. Fill in for each entry.
Tested on: absorption of sodium from the intestinal lumen
Experiment: Inhibition of intestinal sodium absorption: urinary sodium (uNa) 16 h after single oral dose in rats
Assay type: in vivo, rat
Conditions: oral gavage, dose 10 mg/kg, 16 h post-dose
One number for each entry, in %.

Below, 5 compounds whose answers are already recorded.
COMPOUND | MEASURED_ON | READOUT | QUANTITATIVE_READOUT
CN1Cc2c(Cl)cc(Cl)cc2[C@H](c2cccc(S(=O)(=O)NCCOCCOCCOCCNC(=O)COCC(=O)NCCOCCOCCOc3cccc(-c4nc(NC(=N)N)nc5ccc(Cl)cc45)c3)c2)C1 | absorption of sodium from the intestinal lumen | Urine Na % of control | 87
C/C(=C\c1cc(F)c(Oc2ccc(S(=O)(=O)NCCOCCOCCOCCNC(=O)COCC(=O)NCCOCCOCCOCCNS(=O)(=O)c3ccc(Oc4c(F)cc(/C=C(\C)C(=O)N=C(N)N)cc4F)cc3)cc2)c(F)c1)C(=O)N=C(N)N | absorption of sodium from the intestinal lumen | Urine Na % of control | 77
O=C(NCCOCCOCCNS(=O)(=O)c1ccc(O[C@H]2c3ccccc3C[C@@H]2N2CCCCC2)cc1)c1cccc(C(=O)NCCOCCOCCNS(=O)(=O)c2ccc(O[C@H]3c4ccccc4C[C@@H]3N3CCCCC3)cc2)c1 | absorption of sodium from the intestinal lumen | Urine Na % of control | 64
O=C(O)CN(CCN(CC(=O)O)CC(=O)NCCOCCOCCOCCNS(=O)(=O)c1ccc(OC2c3ccccc3CC2N2CCCCC2)cc1)CC(=O)NCCOCCOCCOCCNS(=O)(=O)c1ccc(OC2c3ccccc3CC2N2CCCCC2)cc1 (stereo not drawn) | absorption of sodium from the intestinal lumen | Urine Na % of control | 38
CCCCCCCCCCC(=O)NCCOCCOCCOCCNS(=O)(=O)c1cccc([C@@H]2CN(C)Cc3c(Cl)cc(Cl)cc32)c1 | absorption of sodium from the intestinal lumen | Urine Na % of control | 62

Note: attention shifts to another entry.
Exam item: Query Urine Na % of control for C/C(=C\c1cc(F)c(Oc2ccc(S(=O)(=O)NCCOCCOCCOCCNC(=O)OCCOCCOCCOC(=O)NCCOCCOCCOCCNS(=O)(=O)c3ccc(Oc4c(F)cc(/C=C(\C)C(=O)N=C(N)N)cc4F)cc3)cc2)c(F)c1)C(=O)N=C(N)N
Marked response: 78

----------
Test system: absorption of sodium from the intestinal lumen
Assay: Inhibition of intestinal sodium absorption: urinary sodium (uNa) 16 h after single oral dose in rats
Type: in vivo, rat
Conditions: oral gavage, dose 3 mg/kg, 16 h post-dose
Provide the reported Urine Na % of control of each item.
Give bare numbers, in %.

Answered examples (4):
COMPOUND | READOUT | READOUT_UNIT | QUANTITATIVE_READOUT
CN1Cc2c(Cl)cc(Cl)cc2[C@H](c2cccc(S(=O)(=O)NCCOCCOCCNC(=O)NCCCC(N)(CCCNC(=O)NCCOCCOCCNS(=O)(=O)c3cccc([C@@H]4CN(C)Cc5c(Cl)cc(Cl)cc54)c3)CCCNC(=O)NCCOCCOCCNS(=O)(=O)c3cccc([C@@H]4CN(C)Cc5c(Cl)cc(Cl)cc54)c3)c2)C1 [compound 147] | Urine Na % of control | % | 40
O=C(NCCCCNC(=O)NCCOCCOCCNS(=O)(=O)c1ccc(O[C@H]2c3cc(Cl)cc(Cl)c3C[C@@H]2N2CC[C@@H](O)C2)cc1)NCCOCCOCCNS(=O)(=O)c1ccc(O[C@H]2c3cc(Cl)cc(Cl)c3C[C@@H]2N2CC[C@@H](O)C2)cc1 [compound 87] | Urine Na % of control | % | 54
CN1Cc2c(Cl)cc(Cl)cc2[C@H](c2cccc(S(=O)(=O)NCCOCCOCCNC(=O)CCC(CCC(=O)NCCOCCOCCNS(=O)(=O)c3cccc([C@@H]4CN(C)Cc5c(Cl)cc(Cl)cc54)c3)(CCC(=O)NCCOCCOCCNS(=O)(=O)c3cccc([C@@H]4CN(C)Cc5c(Cl)cc(Cl)cc54)c3)NC(=O)[C@H]3CCCC[C@@H]3C(=O)O)c2)C1 (racemic) [compound 141] | Urine Na % of control | % | 63
CN(C)[C@H]1Cc2c(Cl)cc(Cl)cc2[C@@H]1Oc1ccc(S(=O)(=O)NCCOCCOCCNC(=O)CCC(=O)NCCOCCOCCNS(=O)(=O)c2ccc(O[C@H]3c4cc(Cl)cc(Cl)c4C[C@@H]3N(C)C)cc2)cc1 [compound 148] | Urine Na % of control | % | 49

Now let's try a different one.
Exam item: Consider the compound CN1Cc2c(Cl)cc(Cl)cc2[C@H](c2cccc(S(=O)(=O)N(CCO)CCOCCOCCNC(=O)NCCCN(CCCNC(=O)NCCOCCOCCN(CCO)S(=O)(=O)c3cccc([C@@H]4CN(C)Cc5c(Cl)cc(Cl)cc54)c3)CCCNC(=O)NCCOCCOCCN(CCO)S(=O)(=O)c3cccc([C@@H]4CN(C)Cc5c(Cl)cc(Cl)cc54)c3)c2)C1 [compound 146] . State its measured Urine Na % of control.
Marked response: 70
